B1: tRNA (parent)
chain: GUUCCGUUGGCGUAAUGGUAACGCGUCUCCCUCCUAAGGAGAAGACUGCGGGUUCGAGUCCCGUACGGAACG

Variants of: B1
Assay overview: yeast fitness relative to wild type (ratio to wild type); higher = fitter; tRNA-Arg(CCU), competitive growth, 37 C, YPD
This sample holds only a part of the variants without activity.
yeast fitness values for the variants below.

- U7A C30U G39A A40G G67A: ≤ 0.5
- U13G C30A: 0.715
- U26C C46A U47G G50A A69C: ≤ 0.5
- C11U C29G C33U G39U C60U A65U A69U: ≤ 0.5
- U16C G51A A65U A70G: ≤ 0.5
- U3A C11A A69C: ≤ 0.5

Prompt: Give the measured yeast fitness of C5U U19C .
Response: 0.963

Prompt: Another: U19G C49A C62G C66U A70G
Response: ≤ 0.5

Prompt: Item: U16A C24U C61G A65G
Response: ≤ 0.5

Prompt: Moving on to C4G A14C G48C
Response: 0.579

Prompt: Now the variant G12C G18C G50C
Response: ≤ 0.5

Prompt: Another: U8C C30G C31G C55U
Response: ≤ 0.5

Prompt: Check C11G C30U A37C C55G A65G too.
Response: ≤ 0.5

Hello, the source for this data is the RNAGym collection of RNA variant scans (doi:10.1126/science.aae0568), in case you need it.
